- Tested system: Gonadotropin-releasing hormone receptor (Homo sapiens)
- Assay comment: Human gonadotropin-releasing hormone receptor (GnRHR) small molecule agonists, calcium flux assay in GnRHR-HEK293 cells (AID 1920063); further: on the % scale 0 is the no-effect control and ±100 the full control effect; nearly all actives have a fitted effect of over 35% in size
- Run conditions: calcium flux fluorescence, agonist mode; series mostly up to 57.6 µM
Activity calls are given as the source filed them. The call rests on the fitted dose curve.
Measure: activity change

[[record]]
compound = "CCCCCCCOC(=O)c1ccccc1C(=O)OCCCCCCC"
result = "inactive"

[[record]]
compound = "CCOC(=O)CC(C(C)=O)C(C)=O"
result = "inactive"

[[record]]
compound = "CCCCCCCCS"
result = "inactive"

[[record]]
compound = "CC(C)C(=O)Nc1cccc(C2CN3CCSC3=N2)c1 (stereo not drawn)"
result = "inactive"

[[record]]
compound = "CC(=O)OC[C@H]1O[C@@H](OC(C)=O)[C@H](OC(C)=O)[C@@H]1OC(C)=O"
result = "inactive"

[[record]]
compound = "CC(C(=O)O)c1cccc(C(=O)c2ccccc2)c1 (stereo not drawn)"
result = "inactive"

[[record]]
compound = "CC(C)(c1ccccc1)c1ccc(Nc2ccc(C(C)(C)c3ccccc3)cc2)cc1"
result = "inactive"

[[record]]
compound = "N#[N+]c1ccc2c(S(=O)(=O)[O-])cccc2c1O"
result = "inactive"

[[record]]
compound = "C=CC(=O)O[C@H]1C[C@@H]2CC[C@@]1(C)C2(C)C"
result = "inactive"

[[record]]
compound = "CS(=O)(=O)O"
result = "inactive"

[[record]]
compound = "CCCCCC(CC)OC(=O)CCCOc1ccc(Cl)cc1Cl (stereo not drawn)"
result = "inactive"

[[record]]
compound = "CCO[Si](OCC)(OCC)c1ccccc1"
result = "inactive"

[[record]]
compound = "CC(O)Cn1cnc2c1c(=O)n(C)c(=O)n2C (stereo not drawn)"
result = "inactive"


###

- Assay comment: Nuclear factor erythroid 2-related factor 2/antioxidant responsive element (Nrf2/ARE) small molecule agonists: luciferase reporter gene qHTS assay in human keratinocytes (AID 1919969); further: nearly all actives have a fitted effect of over 35% in size
- Run conditions: KeratinoSens HaCaT ARE-luciferase, luminescence, 24 h; series mostly up to 92.4 µM
Records with an inconclusive call do not appear. Calls of active or inactive are those of the source. Calls follow the shape of the full dose curve.
Possible outcomes: TRUE for active, FALSE for inactive

[[record]]
compound = "O=C(c1ccc(O)cc1O)c1ccc(O)cc1O"
category_label = "FALSE"

[[record]]
compound = "C=CCCC=C"
category_label = "TRUE"

[[record]]
compound = "CCN(CC)S(=O)(=O)c1ccc(C(=O)O)cc1"
category_label = "FALSE"

[[record]]
compound = "O=c1[nH]c(=O)n([C@H]2CCCO2)cc1F"
category_label = "FALSE"

[[record]]
compound = "O=S(O)CO"
category_label = "FALSE"

[[record]]
compound = "C=C(C)[C@@H]1CC[C@@H](C)C[C@@H]1O"
category_label = "FALSE"

[[record]]
compound = "CCOC(=O)[C@H](CCc1ccccc1)N[C@@H](C)C(=O)N1Cc2ccccc2C[C@H]1C(=O)O"
category_label = "FALSE"

[[record]]
compound = "Oc1ccccc1O"
category_label = "FALSE"

[[record]]
compound = "CCCCCCC1(C)CCC(=O)O1 (centres undefined)"
category_label = "FALSE"

[[record]]
compound = "Cc1ccccc1OCC1CO1 (centres undefined)"
category_label = "FALSE"

[[record]]
compound = "CCCOC(=O)C(C)O (centres undefined)"
category_label = "FALSE"

[[record]]
compound = "CSc1nnc(C(C)(C)C)c(=O)[nH]1"
category_label = "FALSE"

[[record]]
compound = "CCCCCCC(C)(C)C(=O)O"
category_label = "FALSE"

[[record]]
compound = "O=S1(=O)OC(c2ccc(O)cc2)(c2ccc(O)cc2)c2ccccc21"
category_label = "FALSE"


###

- Assay comment: Nuclear factor erythroid 2-related factor 2/antioxidant responsive element (Nrf2/ARE) small molecule agonists: luciferase reporter gene qHTS assay in human keratinocytes (AID 1919969); further: nearly all actives have a fitted effect of over 35% in size
- Run conditions: KeratinoSens HaCaT ARE-luciferase, luminescence, 24 h; series mostly up to 92.4 µM
Records with an inconclusive call do not appear. Calls of active or inactive are those of the source. The call rests on the fitted dose curve.
Possible outcomes: 1 = active, -1 = inactive

[[record]]
compound = "C(/C=C/C=C/Nc1ccccc1)=Nc1ccccc1"
category_label = -1

[[record]]
compound = "O=C(O)c1ccccc1C(c1ccc(O)cc1)c1ccc(O)cc1"
category_label = -1

[[record]]
compound = "CC(C)(C)c1nnc(NS(=O)(=O)c2ccc(N)cc2)s1"
category_label = -1

[[record]]
compound = "CC(c1cc2ccccc2s1)N(O)C(N)=O (stereo not given)"
category_label = -1

[[record]]
compound = "CC(=O)O[C@@H]1C[C@@H]2CC[C@@]1(C)C2(C)C"
category_label = -1

[[record]]
compound = "O=C(O)/C=C/c1ccc(Cn2ccnc2)cc1"
category_label = -1

[[record]]
compound = "CC(C)c1ccccc1O"
category_label = -1

[[record]]
compound = "Cn1ccnc1"
category_label = -1

[[record]]
compound = "CCCCCCCCSCC"
category_label = -1

[[record]]
compound = "CNCCS(=O)(=O)O"
category_label = -1

[[record]]
compound = "Cc1ccc(CO)cc1"
category_label = -1

[[record]]
compound = "CNc1ccccc1"
category_label = -1

[[record]]
compound = "O=C(O)c1cc2ccccc2nc1C(=O)O"
category_label = 1

[[record]]
compound = "C=CC(=O)NCOCCCC"
category_label = -1

[[record]]
compound = "COC(=O)c1ccccc1C(=O)O"
category_label = -1


###

- Assay comment: p53 small molecule agonists, cell-based qHTS assay with human liver microsomes: qHTS cell viability counter screen (AID 1963579); further: on the % scale 0 is the no-effect control and ±100 the full control effect; nearly all actives have a fitted effect of over 45% in size
- Run conditions: p53RE-bla HCT-116 viability, ATP luminescence, 16 h, HLM; series mostly up to 66 µM
Inconclusive results are not listed. The source made the active and inactive calls. The call rests on the fitted dose curve.
Measure: activity change, negative = cytotoxicity

[[record]]
compound = "CC(C)CC(=O)OCc1ccccc1"
measure = "activity change, negative = cytotoxicity"
result = "inactive"

[[record]]
compound = "NC(=O)Cc1cccc(C(=O)c2ccccc2)c1N"
measure = "activity change, negative = cytotoxicity"
result = "inactive"

[[record]]
compound = "CC1CC(O)CC(C)(C)C1 (configuration not stated)"
measure = "activity change, negative = cytotoxicity"
result = "inactive"

[[record]]
compound = "CCC(C)c1ccccc1O (configuration not stated)"
measure = "activity change, negative = cytotoxicity"
result = "inactive"

[[record]]
compound = "O=C(Oc1ccccc1)c1ccccc1"
measure = "activity change, negative = cytotoxicity"
result = "inactive"

[[record]]
compound = "C/C(=N\\O)[C@@H](C)NCC(C)(C)CN[C@H](C)/C(C)=N/O"
measure = "activity change, negative = cytotoxicity"
result = "inactive"

[[record]]
compound = "O=C(O)CN(CCCN(CC(=O)O)CC(=O)O)CC(=O)O"
measure = "activity change, negative = cytotoxicity"
result = "10.7% [at 13.5 µM] (inactive)"


###

- Assay comment: p53 small molecule agonists, cell-based qHTS assay with human liver microsomes (AID 1963577);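 further: p53 response element beta-lactamase reporter cells with liver microsomes plus NADPH; on the % scale 0 is the no-effect control and ±100 the full control effect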
- Run conditions: HCT-116 p53RE-bla with human liver microsomes, ratio, 16 h; series mostly up to 66 µM
Inconclusive results are not listed. Activity calls are given as the source filed them. Calls follow the shape of the full dose curve.
Measure: activation

[[record]]
molecule = "O=C(O)[C@@H]1[C@H]2C[C@H]3c4[nH]c5ccccc5c4CCN3C[C@@H]2CC[C@@H]1O"
measure = "activation"
result = "inactive"

[[record]]
molecule = "Clc1ccccc1-c1nc(-c2ccncc2)no1"
measure = "activation"
result = "inactive"

[[record]]
molecule = "CCCO[Si](OCCC)(OCCC)OCCC"
measure = "activation"
result = "inactive"

[[record]]
molecule = "NC(=O)Cc1cccc2ccccc12"
measure = "activation"
result = "inactive"

[[record]]
molecule = "CCc1ccc(C)nc1"
measure = "activation"
result = "inactive"

[[record]]
molecule = "FC(F)(F)c1ccccc1"
measure = "activation"
result = "inactive"

[[record]]
molecule = "CC1CCc2nccnc21 (centres undefined)"
measure = "activation"
result = "inactive"

[[record]]
molecule = "CCC(=O)Nc1cccc(N)c1"
measure = "activation"
result = "inactive"

[[record]]
molecule = "NC(=O)Cc1cccc(C(=O)c2ccccc2)c1N"
measure = "activation"
result = "inactive"

[[record]]
molecule = "FC(F)(F)C(Cl)Br (centres undefined)"
measure = "activation"
result = "inactive"

[[record]]
molecule = "CCCCCCCC(=O)N(C)C"
measure = "activation"
result = "inactive"

[[record]]
molecule = "Nc1ccncc1N"
measure = "activation"
result = "inactive"

[[record]]
molecule = "FC(F)(F)C(F)(F)C(F)(F)C(F)(F)C(F)(F)C(F)(F)CCI"
measure = "activation"
result = "inactive"

[[record]]
molecule = "C=C(C)C(=O)OCCOP(=O)(O)O"
measure = "activation"
result = "inactive"

[[record]]
molecule = "COc1cccc(OC)c1O"
measure = "activation"
result = "inactive"

[[record]]
molecule = "CCCCOC(=O)C(C)OC(=O)CCC (centres undefined)"
measure = "activation"
result = "inactive"

[[record]]
molecule = "Clc1cccc(Cl)c1NC1=NCCN1"
measure = "activation"
result = "inactive"

[[record]]
molecule = "O=C1CC(c2ccc(Cl)cc2)CC(=O)N1"
measure = "activation"
result = "inactive"

[[record]]
molecule = "Nc1cc([N+](=O)[O-])ccc1Cl"
measure = "activation"
result = "inactive"

[[record]]
molecule = "O=c1oc2c(O)c(O)cc3c(=O)oc4c(O)c(O)cc1c4c23"
measure = "activation"
result = "-4.17% [at 13.5 µM] (inactive)"

[[record]]
molecule = "CCCCCCOC(=O)CC"
measure = "activation"
result = "inactive"

[[record]]
molecule = "CC(C)OC(=O)CCCCC(=O)OC(C)C"
measure = "activation"
result = "inactive"

[[record]]
molecule = "CN(C)c1cc(NC(=O)CNC(C)(C)C)c(O)c2c1C[C@H]1C[C@H]3[C@H](N(C)C)C(=O)C(C(N)=O)=C(O)[C@@]3(O)C(=O)C1=C2O"
measure = "activation"
result = "inactive"

[[record]]
molecule = "COC(=O)c1ccc(C(=O)OC)cc1"
measure = "activation"
result = "inactive"

[[record]]
molecule = "COc1ccccc1/C=C/C=O"
measure = "activation"
result = "inactive"

[[record]]
molecule = "OCc1c2ccccc2cc2ccccc12"
measure = "activation"
result = "inactive"

[[record]]
molecule = "CC(C)CCCCCCCCCCCCCCC(=O)O"
measure = "activation"
result = "inactive"

[[record]]
molecule = "CCCCCCCCCCCCCCC(=O)NC(CO)CCCCCCCCCCCCCC (centres undefined)"
measure = "activation"
result = "inactive"

[[record]]
molecule = "COc1cc(C(=O)NCc2ccc(OCCN(C)C)cc2)cc(OC)c1OC"
measure = "activation"
result = "inactive"


All figures here come from PubChem BioAssay (Tox21).
